For each entry below, report its pIC50 value.
# System Name: cellular cGAS activity in baculovirus-stimulated THP1-Dual cells (Homo sapiens (Human))
# Sequence (Q8N884 whole entry): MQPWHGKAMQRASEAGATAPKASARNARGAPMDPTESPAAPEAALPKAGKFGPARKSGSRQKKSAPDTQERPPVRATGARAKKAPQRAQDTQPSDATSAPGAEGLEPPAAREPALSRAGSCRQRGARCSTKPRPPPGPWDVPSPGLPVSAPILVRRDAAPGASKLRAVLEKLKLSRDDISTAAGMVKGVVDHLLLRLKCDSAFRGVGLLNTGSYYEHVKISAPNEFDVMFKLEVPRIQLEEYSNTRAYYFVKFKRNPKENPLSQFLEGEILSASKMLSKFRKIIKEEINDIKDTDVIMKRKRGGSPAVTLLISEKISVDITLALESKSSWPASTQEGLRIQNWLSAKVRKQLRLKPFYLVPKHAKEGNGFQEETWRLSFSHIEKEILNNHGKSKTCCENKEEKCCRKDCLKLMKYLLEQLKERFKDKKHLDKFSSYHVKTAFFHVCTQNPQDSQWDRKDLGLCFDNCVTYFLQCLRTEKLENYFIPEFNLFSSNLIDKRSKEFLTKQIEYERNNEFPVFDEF
# Assay Info: Human cGAS cell assay (THP1(vir) IC50): IFN induction in virus-stimulated THP1-Dual cells, IRF Lucia luciferase reporter;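 also: Eight-point dilution series starting at 10 µM, 1% DMSO, 18 h at 37 °C, luminescence read-out, virus-free wells as 0% and DMSO-treated virus-stimulated wells as 100%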
# Type: cell-based
# Condition Info: Table 1; virus-stimulated THP1 cells; read-out: THP(vir) IC50
For clarity, pIC50 is expressed as the negative log10 of concentration in mol/L.

query: Any idea what pIC50 was measured for C[C@H]1CN2CC[C@]1(F)c1cc(Cl)cnc1O[C@H]1C[C@@H](C(=O)O)N(C1)c1nc(nc3c1oc1ccccc13)C(F)(F)CCCCC(F)(F)C2=O ?
result: 6.82

query: Any idea what pIC50 was measured for CC(=O)c1cnc2c(c1)[C@@]1(F)CCN(C[C@@H]1C)C(=O)CCCOCCc1nc(c3oc4ccccc4c3n1)N1C[C@H](C[C@H]1C(=O)O)O2 ?
result: 7.14

query: Any idea what pIC50 was measured for C[C@H]1CN2CC[C@]1(F)c1cc(Br)cnc1O[C@H]1C[C@@H](C(=O)O)N(C1)c1nc(nc3c1oc1ccccc13)CCOCCCC2=O ?
result: 6.85

query: Any idea what pIC50 was measured for C[C@H]1CN2CC[C@]1(F)c1cc(Cl)cnc1O[C@H]1C[C@@H](C(=O)O)N(C1)c1nc(nc3c1oc1ccccc13)COCCCCC2=O ?
result: 6.85

query: Any idea what pIC50 was measured for C[C@H]1CN2CC[C@]1(F)c1cc(Cl)cnc1O[C@H]1C[C@@H](C(=O)O)N(C1)c1nc(nc3c1oc1ccccc13)COCCCC(F)(F)C2=O ?
result: 6.72

query: Any idea what pIC50 was measured for C[C@H]1CN2CC[C@]1(F)c1cc(Cl)cnc1O[C@H]1C[C@@H](C(=O)O)N(C1)c1nc(nc3c1oc1ccccc13)C(F)(F)COCCCC2=O ?
result: 8.52

query: Any idea what pIC50 was measured for C[C@H]1CN2CC[C@]1(F)c1cc(Cl)cnc1O[C@H]1C[C@@H](C(=O)O)N(C1)c1nc(nc3c1oc1cc(Cl)ccc13)C(F)(F)CCCOCC2=O ?
result: 8.52

query: Any idea what pIC50 was measured for C[C@H]1CN2CC[C@]1(F)c1cc(Cl)cnc1O[C@H]1C[C@@H](C(=O)O)N(C1)c1nc(nc3c1oc1ccccc13)CCCCOC2=O ?
result: 6.08

query: Any idea what pIC50 was measured for C[C@H]1CN2CC[C@]1(F)c1cc(-c3cnn(C)c3)cnc1O[C@H]1C[C@@H](C(=O)O)N(C1)c1nc(nc3c1oc1ccccc13)CCOCCCC2=O ?
result: 8.10

query: Any idea what pIC50 was measured for C[C@H]1COCCCc2nc(c3oc4ccccc4c3n2)N2C[C@H](C[C@H]2C(=O)O)Oc2ncc(Br)cc2[C@@]2(F)CCN(C[C@@H]2C)C1=O ?
result: 6.96

query: Any idea what pIC50 was measured for C[C@H]1CN2CC[C@]1(F)c1cc(Cl)cnc1O[C@H]1C[C@@H](C(=O)O)N(C1)c1nc(nc3c1oc1ccccc13)CCOCCC2=O ?
result: 8.52

query: Any idea what pIC50 was measured for C[C@H]1CN2CC[C@]1(F)c1cc(Cl)cnc1O[C@H]1C[C@@H](C(=O)O)N(C1)c1nc(nc3c1oc1ccccc13)CCCCCOC2=O ?
result: 6.31

query: Any idea what pIC50 was measured for C[C@H]1CN2CC[C@]1(F)c1cc(Cl)cnc1O[C@H]1C[C@@H](C(=O)O)N(C1)c1nc(nc3c1oc1ccccc13)CC(=O)NCCOC2=O ?
result: 6.96

query: Any idea what pIC50 was measured for C[C@H]1CN2CC[C@]1(F)c1cc(Cl)cnc1O[C@H]1C[C@@H](C(=O)O)N(C1)c1nc(nc3c1oc1ccccc13)CC(=O)NCCCC2=O ?
result: 6.82

query: Any idea what pIC50 was measured for C[C@H]1CN2CC[C@]1(F)c1cc(Cl)cnc1O[C@H]1C[C@@H](C(=O)O)N(C1)c1nc(nc3c1oc1ccccc13)C(F)(F)OCCCCC2=O ?
result: 7.15

query: Any idea what pIC50 was measured for C#Cc1cnc2c(c1)[C@@]1(F)CCN(C[C@@H]1C)C(=O)CCCOCCc1nc(c3oc4ccccc4c3n1)N1C[C@H](C[C@H]1C(=O)O)O2 ?
result: 7.46

====

# System Name: cellular cGAS activity in dsDNA-stimulated human whole blood (Homo sapiens (Human), UniProt Q8N884)
# Sequence (Q8N884 whole entry): as above
# Assay Info: Human whole blood assay (hWB IC50): IFNα2a production after dsDNA transfection;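 also: IFNα-2a in plasma measured by MSD electrochemiluminescence immunoassay after 22 h at 37 °C, 8-point dilution series from 10 µM top concentration, DMSO wells as controls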
# Format: cell-based
# Condition Info: Table 1; dsDNA-stimulated human whole blood
Quantity Measured: pIC50
For clarity, pIC50 is expressed as the negative log10 of concentration in mol/L.

query: Any idea what pIC50 was measured for C[C@H]1CN2CC[C@]1(F)c1cc(Cl)cnc1O[C@H]1C[C@@H](C(=O)O)N(C1)c1nc(nc3c1oc1ccccc13)CC(=O)NCCOC2=O ?
result: 6.94

query: Any idea what pIC50 was measured for CC(=O)c1cnc2c(c1)[C@@]1(F)CCN(C[C@@H]1C)C(=O)CCCOCCc1nc(c3oc4ccccc4c3n1)N1C[C@H](C[C@H]1C(=O)O)O2 ?
result: 6.84

query: Any idea what pIC50 was measured for C[C@H]1CN2CC[C@]1(F)c1cc(Cl)cnc1O[C@H]1C[C@@H](C(=O)O)N(C1)c1nc(nc3c1oc1ccccc13)CCOCCCC2=O ?
result: 7.00

query: Any idea what pIC50 was measured for C[C@H]1CN2CC[C@]1(F)c1cc(Cl)cnc1O[C@H]1C[C@@H](C(=O)O)N(C1)c1nc(nc3c1oc1ccccc13)CCCCCC2=O ?
result: 7.10

====

# System Name: Human cGAS enzyme (Homo sapiens (Human), UniProt Q8N884)
# Sequence (Q8N884 whole entry): as above
# Assay Info: Human cGAS enzyme assay (hcGAS IC50, in vitro), cGAMP formation by RapidFire MS;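 also: recombinant human cGAS activated by 45 bp dsDNA with 30 µM each ATP and GTP, 90 min, cGAMP vs cyclic-di-GMP standard by MS, 8-point titration from 10 µM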
# Type: biochemical
# Condition Info: Table 1
Quantity Measured: pIC50
For clarity, pIC50 is expressed as the negative log10 of concentration in mol/L.

query: Any idea what pIC50 was measured for C[C@H]1CN2CC[C@]1(F)c1cc(Cl)cnc1O[C@H]1C[C@@H](C(=O)O)N(C1)c1nc(nc3c1oc1ccccc13)CCOCCCC2=O ?
result: 7.96

query: Any idea what pIC50 was measured for C[C@H]1CN2CC[C@]1(F)c1cc(Cl)cnc1O[C@H]1C[C@@H](C(=O)O)N(C1)c1nc(nc3c1oc1ccccc13)CCCOCCC2=O ?
result: 7.92

query: Any idea what pIC50 was measured for C[C@H]1CN2CC[C@]1(F)c1cc(-c3cnn(C)c3)cnc1O[C@H]1C[C@@H](C(=O)O)N(C1)c1nc(nc3c1oc1ccccc13)CCOCCCC2=O ?
result: 8.15

query: Any idea what pIC50 was measured for COc1ncccc1-c1cnc2c(c1)[C@@]1(F)CCN(C[C@@H]1C)C(=O)CCCOCCc1nc(c3oc4ccccc4c3n1)N1C[C@H](C[C@H]1C(=O)O)O2 ?
result: 7.74

query: Any idea what pIC50 was measured for C[C@H]1CN2CC[C@]1(F)c1cc(Cl)cnc1O[C@H]1C[C@@H](C(=O)O)N(C1)c1nc(nc3c1oc1cc(Cl)ccc13)C(F)(F)CCCOCC2=O ?
result: 8.30

query: Any idea what pIC50 was measured for C[C@H]1CN2CC[C@]1(F)c1cc(Cl)cnc1O[C@H]1C[C@@H](C(=O)O)N(C1)c1nc(nc3c1oc1ccccc13)CCCOCC2=O ?
result: 8.52

query: Any idea what pIC50 was measured for C[C@H]1CN2CC[C@]1(F)c1cc(Cl)cnc1O[C@H]1C[C@@H](C(=O)O)N(C1)c1nc(nc3c1oc1ccccc13)CCOCCC2=O ?
result: 8.52

query: Any idea what pIC50 was measured for C[C@H]1CN2CC[C@]1(F)c1cc(Br)cnc1O[C@H]1C[C@@H](C(=O)O)N(C1)c1nc(nc3c1oc1ccccc13)CCCCOCC2=O ?
result: 8.15

query: Any idea what pIC50 was measured for C[C@H]1CN2CC[C@]1(F)c1cc(Cl)cnc1O[C@H]1C[C@@H](C(=O)O)N(C1)c1nc(nc3c1oc1ccccc13)C(F)(F)COCCCC2=O ?
result: 8.30
